Tested on: RAR
Assay: differentiation of mouse embryonic teratocarcinoma cells (F9), inhibition of the activity of agonist CD2043 (RAR-antagonist identification)
Assay type: cell-based
Conditions: F9 cells; compound 10^-5 M; agonist CD2043 10^-8 M
Text: The compounds according to the invention show activity in the test of differentiation of mouse embryonic teratocarcinoma cells (F9) (Cancer Research 43, p. 5268, 1983) and/or in the test of inhibition of ornithine decarboxylase after induction with TPA in mice (Cancer Research 38, p. 793-801, 1978). These tests show the activities of these compounds in the fields of cell differentiation and proliferation respectively. […]
Each record here notes measured % of inhibition of the agonist activity.
quantity_name: % of inhibition of the agonist activity (%)

{"smiles_repr": "COc1ccc(/C=C/C#Cc2ccc(C(=O)O)cc2)c(-c2ccc(C)cc2)c1", "value": 91}
{"smiles_repr": "CCCOc1ccc(/C=C/C#Cc2ccc(C(=O)O)cc2)c(-c2ccc(C)cc2)c1", "value": 84}
{"smiles_repr": "Cc1ccc(-c2c(O)cccc2/C=C/C#Cc2ccc(C(=O)O)cc2)cc1", "value": 97}
{"smiles_repr": "COCOc1ccc(/C=C/C#Cc2ccc(C(=O)O)cc2)c(-c2ccc(C)cc2)c1", "value": 92}
{"smiles_repr": "O=C(O)c1ccc(C#C/C=C/c2ccccc2-c2ccccc2)cc1", "value": 100}
{"smiles_repr": "COCOc1cccc(/C=C/C#Cc2ccc(C(=O)O)cc2)c1-c1ccc(C)cc1", "value": 98}
{"smiles_repr": "Cc1ccc(-c2c(C)cccc2/C=C/C#Cc2ccc(C(=O)O)cc2)cc1", "value": 95}
{"smiles_repr": "Cc1ccc(-c2cccc(F)c2/C=C/C#Cc2ccc(C(=O)O)cc2)cc1", "value": 96}
{"smiles_repr": "Cc1ccc(-c2ccccc2/C=C/C#Cc2ccc(C(=O)O)cc2)cc1", "value": 94}
{"smiles_repr": "COCOc1ccc(-c2ccccc2/C=C/C#Cc2ccc(C(=O)O)cc2)cc1", "value": 96}
{"smiles_repr": "COc1cccc(/C=C/C#Cc2ccc(C(=O)O)cc2)c1-c1ccc(C)cc1", "value": 95}
{"smiles_repr": "COCOc1ccc(-c2ccc(C)cc2)c(/C=C/C#Cc2ccc(C(=O)O)cc2)c1", "value": 93}
{"smiles_repr": "COCOc1cccc(-c2ccc(C)cc2)c1/C=C/C#Cc1ccc(C(=O)O)cc1", "value": 97}
{"smiles_repr": "Cc1ccc(-c2ccc(C)cc2/C=C/C#Cc2ccc(C(=O)O)cc2)cc1", "value": 87}
{"smiles_repr": "C/C(=C\\C#Cc1ccc(C(=O)O)cc1)c1ccccc1-c1ccc(C)cc1", "value": 69}
